- Test system: KRAS-mutant PDC multicell tumor spheroid viability
- Assay explanation: Anticancer human tumor 521955-158-R2-J5-PDC patient-derived pancreatic carcinoma cell line growth inhibition [KRAS2]
- Experimental conditions: second compound 3.16 µM; first compound 1 µM; stronger effect = lower value
// values below are reported viability, T/C

Here is how some compounds turned out for viability, T/C.
CC1(C)CCC(CN2CCN(c3ccc(C(=O)NS(=O)(=O)c4ccc(NCC5CCOCC5)c([N+](=O)[O-])c4)c(Oc4cnc5[nH]ccc5c4)c3)CC2)=C(c2ccc(Cl)cc2)C1 + COc1cc2nc(C)nc(NC(C)c3cc(N)cc(C(F)(F)F)c3)c2cc1OC1CCOC1 : 80%
COc1cc(Nc2ncc3c(n2)-c2ccc(Cl)cc2C(c2c(F)cccc2OC)=NC3)ccc1C(=O)O + CNCc1ccccc1-c1csc(C(C)Nc2nc(C)nc3cc(OC)c(OC)cc23)c1 : 1.11%
CCN1CCN(Cc2ccc(Nc3ncc(F)c(-c4cc(F)c5nc(C)n(C(C)C)c5c4)n3)nc2)CC1 + C=CC(=O)N1CCN(c2nc(=O)n(-c3c(C)ccnc3C(C)C)c3nc(-c4c(O)cccc4F)c(F)cc23)C(C)C1 : 88.8%

Req: State the recorded viability, T/C for this entry: COC(=O)c1ccc2c(C(=Nc3ccc(N(C)C(=O)CN4CCN(C)CC4)cc3)c3ccccc3)c(O)[nH]c2c1 + C=CC(=O)N1CCN(c2nc(=O)n(-c3c(C)ccnc3C(C)C)c3nc(-c4c(O)cccc4F)c(F)cc23)C(C)C1
Resp: 53.4%

Req: State the recorded viability, T/C for this entry: CC1COCCN1c1cc(-c2ccnn2C)c2ccnc(-c3ccn[nH]3)c2n1 (stereo not given) + COc1cc2nc(C)nc(NC(C)c3cc(N)cc(C(F)(F)F)c3)c2cc1OC1CCOC1
Resp: 16.6%

---

- System: KRAS-mutant PDC multicell tumor spheroid viability
- Assay explanation: Anticancer human tumor 521955-158-R2-J5-PDC cell line growth inhibition [KRAS2];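 also: viability read after seven days of drug exposure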
- Experimental conditions: second compound 3.16 µM; first compound 1 µM; stronger effect = lower value
Result type: viability, T/C (%)
Hi! Could you send only the number? It should be in %, unit omitted.

Here is how some compounds turned out for viability, T/C.
COC(=O)c1ccc2c(C(=Nc3ccc(N(C)C(=O)CN4CCN(C)CC4)cc3)c3ccccc3)c(O)[nH]c2c1 + COc1cc2nc(C)nc(NC(C)c3cc(N)cc(C(F)(F)F)c3)c2cc1OC1CCOC1 : 99.6
CC(=O)OC12COC1CC(O)C1(C)C(=O)C(O)C3=C(C)C(OC(=O)C(O)C(NC(=O)OC(C)(C)C)c4ccccc4)CC(O)(C(OC(=O)c4ccccc4)C21)C3(C)C (stereo not drawn) + CC1OCC2(CCN(c3cnc(Sc4ccnc(N)c4Cl)c(N)n3)CC2)C1N : 19.5

Next:
Req: State the recorded viability, T/C for this entry: COC(=O)c1ccc2c(C(=Nc3ccc(N(C)C(=O)CN4CCN(C)CC4)cc3)c3ccccc3)c(O)[nH]c2c1 + CC1OCC2(CCN(c3cnc(Sc4ccnc(N)c4Cl)c(N)n3)CC2)C1N
Resp: 51.7

---

// values below are reported viability, T/C
- System: KRAS-mutant PDC multicell tumor spheroid viability
- Assay explanation: Anticancer human tumor 521955-158-R2-J5-PDC cell line growth inhibition [KRAS2];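 also: viability read after seven days of drug exposure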
- Experimental conditions: second compound 0.316 µM; first compound 0.0316 µM; stronger effect = lower value
- Description: Multicellular complex tumor spheroid response to RAS pathway inhibitors in combination with a targeted agents in patient-derived cell lines with oncogenic KRAS variants from multiple cancer types A high-throughput screen of multi-cell type tumor spheroids was designed to identify active combinations of targeted small molecules and KRAS pathway inhibitors. […] Compounds. […] If the clinical Cmax for an agent had not been determined, the highest concentration tested was 10 microM. […]
Hi! Could you send only the number? It should be in %, unit omitted.

Here is how some molecules turned out for viability, T/C.
CCNC(=O)CC1N=C(c2ccc(Cl)cc2)c2cc(OC)ccc2-n2c(C)nnc21 (stereo not given) + C=CC(=O)N1CCN(c2nc(OCC3CCCN3C)nc3c2CCN(c2cccc4cccc(C)c24)C3)CC1CC#N : 103
CC(C)n1nc(-c2ccc3oc(N)nc3c2)c2c(N)ncnc21 + CC1OCC2(CCN(c3cnc(Sc4ccnc(N)c4Cl)c(N)n3)CC2)C1N : 31.2
COc1cc(Nc2ncc3c(n2)-c2ccc(Cl)cc2C(c2c(F)cccc2OC)=NC3)ccc1C(=O)O + C=CC(=O)N1CCN(c2nc(=O)n(-c3c(C)ccnc3C(C)C)c3nc(-c4c(O)cccc4F)c(F)cc23)C(C)C1 : 43.2

Req: State the recorded viability, T/C for this entry: CC(=O)Nc1cccc(-n2c(=O)n(C3CC3)c(=O)c3c(Nc4ccc(I)cc4F)n(C)c(=O)c(C)c32)c1 + CC1OCC2(CCN(c3cnc(Sc4ccnc(N)c4Cl)c(N)n3)CC2)C1N
Resp: 12.4

Req: State the recorded viability, T/C for this entry: CCNC(=O)CC1N=C(c2ccc(Cl)cc2)c2cc(OC)ccc2-n2c(C)nnc21 (stereo not given) + COc1cc2nc(C)nc(NC(C)c3cc(N)cc(C(F)(F)F)c3)c2cc1OC1CCOC1
Resp: 104

---

- Test system: KRAS-mutant PDC multicell tumor spheroid viability
- Assay explanation: Anticancer human tumor 521955-158-R2-J5-PDC cell line growth inhibition [KRAS2];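 also: viability read after seven days of drug exposure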
- Experimental conditions: curve of first compound; second compound 0.1 µM
pIC50: −log10 of the molar value.
Result type: pIC50

CCNC(=O)CC1N=C(c2ccc(Cl)cc2)c2cc(OC)ccc2-n2c(C)nnc21 (stereo not given) + C=CC(=O)N1CCN(c2nc(=O)n(-c3c(C)ccnc3C(C)C)c3nc(-c4c(O)cccc4F)c(F)cc23)C(C)C1 : 6.32
CC1OCC2(CCN(c3cnc(Sc4ccnc(N)c4Cl)c(N)n3)CC2)C1N (stereo not given) + COc1cc2nc(C)nc(NC(C)c3cc(N)cc(C(F)(F)F)c3)c2cc1OC1CCOC1 : < 5.00
CCN1CCN(Cc2ccc(Nc3ncc(F)c(-c4cc(F)c5nc(C)n(C(C)C)c5c4)n3)nc2)CC1 + CNCc1ccccc1-c1csc(C(C)Nc2nc(C)nc3cc(OC)c(OC)cc23)c1 : < 6.00

Req: State the recorded pIC50 for this entry: CC(C)n1nc(-c2ccc3oc(N)nc3c2)c2c(N)ncnc21 + C=CC(=O)N1CCN(c2nc(=O)n(-c3c(C)ccnc3C(C)C)c3nc(-c4c(O)cccc4F)c(F)cc23)C(C)C1
Resp: 8.02

Req: State the recorded pIC50 for this entry: CC(=O)OC12COC1CC(O)C1(C)C(=O)C(O)C3=C(C)C(OC(=O)C(O)C(NC(=O)OC(C)(C)C)c4ccccc4)CC(O)(C(OC(=O)c4ccccc4)C21)C3(C)C (stereo not given) + COc1cc2nc(C)nc(NC(C)c3cc(N)cc(C(F)(F)F)c3)c2cc1OC1CCOC1
Resp: > 8.00

Req: State the recorded pIC50 for this entry: CCN1CCN(Cc2ccc(Nc3ncc(F)c(-c4cc(F)c5nc(C)n(C(C)C)c5c4)n3)nc2)CC1 + C=CC(=O)N1CCN(c2nc(=O)n(-c3c(C)ccnc3C(C)C)c3nc(-c4c(O)cccc4F)c(F)cc23)C(C)C1
Resp: < 6.00

Req: State the recorded pIC50 for this entry: CN(C)C/C=C/C(=O)Nc1cc2c(Nc3ccc(F)c(Cl)c3)ncnc2cc1O[C@H]1CCOC1 + C=CC(=O)N1CCN(c2nc(=O)n(-c3c(C)ccnc3C(C)C)c3nc(-c4c(O)cccc4F)c(F)cc23)C(C)C1
Resp: < 7.00

Req: State the recorded pIC50 for this entry: CC(=O)OC12COC1CC(O)C1(C)C(=O)C(O)C3=C(C)C(OC(=O)C(O)C(NC(=O)OC(C)(C)C)c4ccccc4)CC(O)(C(OC(=O)c4ccccc4)C21)C3(C)C (stereo not given) + CNCc1ccccc1-c1csc(C(C)Nc2nc(C)nc3cc(OC)c(OC)cc23)c1
Resp: > 8.00

Req: State the recorded pIC50 for this entry: COC(=O)c1ccc2c(C(=Nc3ccc(N(C)C(=O)CN4CCN(C)CC4)cc3)c3ccccc3)c(O)[nH]c2c1 + C=CC(=O)N1CCN(c2nc(OCC3CCCN3C)nc3c2CCN(c2cccc4cccc(C)c24)C3)CC1CC#N
Resp: 6.06

Req: State the recorded pIC50 for this entry: CN(C)C/C=C/C(=O)Nc1cc2c(Nc3ccc(F)c(Cl)c3)ncnc2cc1O[C@H]1CCOC1 + CNCc1ccccc1-c1csc(C(C)Nc2nc(C)nc3cc(OC)c(OC)cc23)c1
Resp: < 7.00

---

- Test system: KRAS-mutant PDC multicell tumor spheroid viability
- Assay explanation: Anticancer human tumor 521955-158-R2-J5-PDC cell line growth inhibition [KRAS2];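 also: viability read after seven days of drug exposure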
- Experimental conditions: second compound 3.16 µM; first compound 0.1 µM; stronger effect = lower value
Result type: viability, T/C (%)
Hi! Could you send only the number? It should be in %, unit omitted.

COc1cc(Nc2ncc3c(n2)-c2ccc(Cl)cc2C(c2c(F)cccc2OC)=NC3)ccc1C(=O)O + CNCc1ccccc1-c1csc(C(C)Nc2nc(C)nc3cc(OC)c(OC)cc23)c1 : 0.13
CC1COCCN1c1cc(-c2ccnn2C)c2ccnc(-c3ccn[nH]3)c2n1 (stereo not drawn) + CC1OCC2(CCN(c3cnc(Sc4ccnc(N)c4Cl)c(N)n3)CC2)C1N : 7.05
CC(C)n1nc(-c2ccc3oc(N)nc3c2)c2c(N)ncnc21 + CNCc1ccccc1-c1csc(C(C)Nc2nc(C)nc3cc(OC)c(OC)cc23)c1 : 0.88

Req: State the recorded viability, T/C for this entry: CC(C)NCC(C(=O)N1CCN(c2ncnc3c2C(C)CC3O)CC1)c1ccc(Cl)cc1 (stereo not drawn) + C=CC(=O)N1CCN(c2nc(OCC3CCCN3C)nc3c2CCN(c2cccc4cccc(C)c24)C3)CC1CC#N
Resp: 14.6

Req: State the recorded viability, T/C for this entry: CC(C)NCC(C(=O)N1CCN(c2ncnc3c2C(C)CC3O)CC1)c1ccc(Cl)cc1 (stereo not drawn) + CC1OCC2(CCN(c3cnc(Sc4ccnc(N)c4Cl)c(N)n3)CC2)C1N
Resp: 57.8

Req: State the recorded viability, T/C for this entry: Cn1ncnc1[C@H]1c2n[nH]c(=O)c3cc(F)cc(c23)N[C@@H]1c1ccc(F)cc1 + C=CC(=O)N1CCN(c2nc(OCC3CCCN3C)nc3c2CCN(c2cccc4cccc(C)c24)C3)CC1CC#N
Resp: 8.81

Req: State the recorded viability, T/C for this entry: Cn1nccc1Nc1nccc(-c2cc3c(s2)C(C)(C)N(CCN2CCOCC2)C3=O)n1 + COc1cc2nc(C)nc(NC(C)c3cc(N)cc(C(F)(F)F)c3)c2cc1OC1CCOC1
Resp: 75.3

Req: State the recorded viability, T/C for this entry: CCNC(=O)CC1N=C(c2ccc(Cl)cc2)c2cc(OC)ccc2-n2c(C)nnc21 (stereo not drawn) + CC1OCC2(CCN(c3cnc(Sc4ccnc(N)c4Cl)c(N)n3)CC2)C1N
Resp: 52.2

Req: State the recorded viability, T/C for this entry: CC(C)NCC(C(=O)N1CCN(c2ncnc3c2C(C)CC3O)CC1)c1ccc(Cl)cc1 (stereo not drawn) + CNCc1ccccc1-c1csc(C(C)Nc2nc(C)nc3cc(OC)c(OC)cc23)c1
Resp: 1.33

Req: State the recorded viability, T/C for this entry: COc1cc2nccc(Oc3ccc(NC(=O)C4(C(=O)Nc5ccc(F)cc5)CC4)cc3)c2cc1OC + C=CC(=O)N1CCN(c2nc(=O)n(-c3c(C)ccnc3C(C)C)c3nc(-c4c(O)cccc4F)c(F)cc23)C(C)C1
Resp: 109

Req: State the recorded viability, T/C for this entry: COc1cc(Nc2ncc3c(n2)-c2ccc(Cl)cc2C(c2c(F)cccc2OC)=NC3)ccc1C(=O)O + COc1cc2nc(C)nc(NC(C)c3cc(N)cc(C(F)(F)F)c3)c2cc1OC1CCOC1
Resp: 32

Req: State the recorded viability, T/C for this entry: Cn1nccc1Nc1nccc(-c2cc3c(s2)C(C)(C)N(CCN2CCOCC2)C3=O)n1 + CC1OCC2(CCN(c3cnc(Sc4ccnc(N)c4Cl)c(N)n3)CC2)C1N
Resp: 63.1
